# assay: yeast display, Sf9 membrane polyspecificity reagent, FACS + sequencing; frameworks hold sequencing errors
measured_property: polyreactivity (PSR sort gate)

INSERT INTO assay_data (polymer_sequence, result) VALUES
  ('QVQLVESGGGLVQAGGSLRLSCAASGRIFGYYAMGCYRQAPGKERELVAAIRWGGGRTYADSVKGRFTISRDNAKNTVYLQMNSLKPEDTAVDYCAARFTRTRPLWRARYGYWGQGTQVTVSS', 'high polyreactivity'),
  ('QVQLVESGGGLLQAGGSLRLSCAASGSIFSRYAMGWYRQAPGKERELVAAISKSGTRTYYADSVKGRFTISRDNAKNTVYLQMNSLKPEDTAVYYCNADSEISWYYPYEYWGQGTQVTVSS', 'high polyreactivity');

----------
# assay: yeast display, Sf9 membrane polyspecificity reagent, FACS + sequencing; frameworks hold sequencing errors
measured_property: polyreactivity (PSR sort gate)

Recorded polyreactivity (PSR sort gate), per entry:
INSERT INTO results (polymer_sequence, measured_property, result) VALUES
  ('QVQLVESGGGLVQAGGSLRLSCAASGFTFGRYGMGWYRQAPGKDREFVAAITGRTGTTYYADSVKGRFTISRDNAKNTVYLQMNSLKPEDTAVYYCAARGQYRSSRYPYYHWGQGTQVTVSS', 'polyreactivity (PSR sort gate)', 'high polyreactivity'),
  ('QVQLVESGGGLVQAGGSLRLSCAASGPIFKRNAMGWYRQAPGKERELVAAISGSGGRTYYADSVKGRFTISRDNAKNTVYLQMNSLKPEDTAVYYCNAGGSYYARGMDYWGQGTQVTVSS', 'polyreactivity (PSR sort gate)', 'high polyreactivity'),
  ('QVQLVESGVCLVQSGGSLRLICAASGRIITPYTMGWYRQAPGKERELVATITWSGGSTYYADSVKGRFTISRDNSKNTVYLQMNSLKPEDTAVYYCAARQIYVWAEYDYWGQGTQVTVSS', 'polyreactivity (PSR sort gate)', 'low polyreactivity'),
  ('QVQLVESGGGLVQAGGSLRLSCAASGFIFSGNAMGWYRQAPGKERELVAAITRGGITYYADSVKGRFTISRDNAKNTVYLQMNSLKPEDTAVYYCNALGFGSNYDYWGQGTQVTVSS', 'polyreactivity (PSR sort gate)', 'high polyreactivity'),
  ('QVQLVESGGGLVQAGGSLRLSCPASGSIFRSYAMGWYRPAPGKERELVASISRRGGSSYYADSVKGRFTISRDNAKNTVYLQMNSLKPEDTAVYYCAAVRYNSRGSTTPSEMYYWGQGTQVTVSS', 'polyreactivity (PSR sort gate)', 'low polyreactivity');

Field polyreactivity (PSR sort gate) (entry QVQLVESGGGLVQAGGSLRLSCAASGSIFGTNAMGWYRQAPGKERELVAAIDGGSTTYYADSVKGRFTISRDNAKNTVYLQMNSLKPEDTAVYYCAADGTRYLNYEGYAGYEYWGQGTQVTVSS ) reads low polyreactivity

// field: polyreactivity (PSR sort gate); key: QVQLVESGGGLVQAGGSLSLSCAASGSNFSENTMGWYRQAPGKKRELVADITSGGSTNYADSVKGRFTISRDNAKNTVYLQMNSLKPEDTAVYYCAADYHGEYDYWGQGTLVTVSS ; value = low polyreactivity

The value of polyreactivity (PSR sort gate) measured for the sequence QVQLVESGGGLVQAGCRLRLSCAAAAYIYRYAMGWYIQAPGKEREFVAAITWNGGSTYYADSVNGRFTISRDNAKITVYLQMNSLKPEDTGVYYCADDWSYYRRHFDYWGHGTQVTVSS turned out to be high polyreactivity

Record summary for QVQLVESGGGLVQAGGSLRLSCAASGFTFVYKDMGWYRQAPGKEREFVAAISSGGSTYYADSVKGRFTISRDNAKNTVYLQMNSLKPEDTAVYYCARRNPGPKHARYGYWGQGTQVNVSS : reported polyreactivity (PSR sort gate) = high polyreactivity

So, QVQLVESGGGLVQAGGSLRLSCAASGIIFGYYAMGRYRQAPGKERELVAAITWSGGSTYYADSVKGRFTISRDNAKNTVYLQMNSLKPEDTAVYYCAAGDPTLLNESFDYWGQGTQVTVSS ? Its polyreactivity (PSR sort gate) was low polyreactivity

Looking up QVQLVESGGGLVQAGGSLRLSCAASGSIFPIYAMGWSRQPPGKESELVAPISRGGSTNYADSVKGRFTISRDNAKNTVYLQMNSLKPEDTAVYYCAAQSRVFSTWGSTGEYYYWGQGTQVTVSS , I see its polyreactivity (PSR sort gate) listed as low polyreactivity

----------
# assay: yeast display, Sf9 membrane polyspecificity reagent, FACS + sequencing; frameworks hold sequencing errors
measured_property: polyreactivity (PSR sort gate)

INSERT INTO measurements (polymer_sequence, result) VALUES
  ('QVQLVESGGGLVQAGGSLRLSCAASGSIFSTYAMGWYRQAPGKERELVAAINSGDSTSYADSVKGRFTISRDNAKNTVYLQMNSLKPEDTAVYYCAAKTGGYWYLRRTGRYESWGQGTQVTVSS', 'low polyreactivity'),
  ('QVQLVESGGGLVQAGGSLRLSCAASGSTLYLNAMGWYRQAPGKERELDASISNGVNTNYADSVKGRFTISRDNAKNTVYLLMNSLKPEDTAVYYCAKEKRFQKTVHRKPAYDYWGQGTQVTVSS', 'low polyreactivity'),
  ('QVQLVESGGGLVQAGGSLRLSCAASGRTFAYNAMGWYRQAPGKERELVASITSGGSTNYADSVKGRFTISRDNAKNTVYLQMNSLKPEDTAVFYCNKDGKYHRVLYDYWGQGTQVTVSS', 'low polyreactivity'),
  ('QVQHVESGGGLVQAGGSLRLSCAASGFIFSTNAMGRYRQAPGKERELVATIRSGGSTNYADSVKGRFTISRDNAKYTVYLQMNSLKPEDTAVYYCNVDDTSWTTSGGRFGQVEYDYWGQGTQVTVSS', 'low polyreactivity'),
  ('QVHLVESGGGLVQAGGSLRLSCAASGSTFRSNAMGWYRQAPGKERELVASITSRGGSTYYADSVKGRFTISRDNAKNTVYLQMNSLKPEDTAVYYCATARSYLTYSYHYDYWGQGTQVTVSS', 'low polyreactivity'),
  ('QVQHVESGGGLVQAGGSLRLSCAASGGTFRWNAMGWYRQAPGQERELVAAITKSGGSTYYADSVKGRFTISRDNAKNTVYLQMNSLKPEDTAVYYCATDYLRRRDYWGQGTQVTVSS', 'high polyreactivity'),
  ('QVQLVESGGGIVQARGSLRLSCAASGSILSSYAMGWYTQAPGKERELVAAISKSGTRTYYADSVKGRFTISRDNAKNTVYLQMNSLKPEDTAVYYCAARYYSRTTAMDYWGQGTQVTVSS', 'high polyreactivity'),
  ('QVQLVDSGGGLVQAGGSLRLSCAASGFIFSDYAMGWYRQAPGKEREFVAAISSGGSTYYADSVKGRFTISRDNAKNTVYLQMNSLKPEDTAVYYCNALWYREMDYWGQGTQVTVSS', 'high polyreactivity');

Memo: QVQLVESGGGLVQAGGSLRLSCAASGSTFDAYAMGWYRQAPGKERELVAPISWSGGGTTYADSVKGRFTISRDNAKNTVYLLMNSLKPEDTAVYYCNAKGSVRDFQDTLRPEGDYWGQGTQVTVSS , reported polyreactivity (PSR sort gate): low polyreactivity

Form: sequence = QVQLVESGGGLVQAGGSLRLTCAASGRNFRAYAMGWYRQAPGKERELVAAISTSGGSTRYADSVKGRFTISRDNAKNTVYLQMNSLKPEDTAVYYCARYTTRTYEYNYWGQGTQVTVSS ; polyreactivity (PSR sort gate) = high polyreactivity

GET /value?item= QVQLVESGGGLVQAGGSLRLSCAASGFTLGYNAMGWYRQAPGKERELVAGITWSGGSTSYADSVKGRFTISRDNAKNTVYLQMYSLKPADTAVYYCAKLRRYSGWLPWPYAYDYWGQGTQVTVSS &field=polyreactivity (PSR sort gate) returns high polyreactivity

----------
# assay: yeast display, Sf9 membrane polyspecificity reagent, FACS + sequencing; frameworks hold sequencing errors
measured_property: polyreactivity (PSR sort gate)

INSERT INTO results (polymer_sequence, result) VALUES
  ('QVQLVESGGGLVQAGGSLRLSCAASGLIFIKYTMGWYRQAPGKERELVAVISGSGGSTYYADSVKGRFTISRDNAKNTVYLQMNSLKPEDTAVYYCAARSYALGYGGGYWGQGTQVTVSS', 'high polyreactivity'),
  ('QVQLGESGVGLVQAGGSHRLSCAASGSTSPINAMGWYRQAPGKERELVAVISSSGGRTYYADSVKGRFTISRDNAKNTVYLQMNSLKPEDTAVYYCANRFSRRQPDYDYWGQGTQVTVSS', 'high polyreactivity'),
  ('QVQLVESGGGLVQAGGSLRLSCAASGSTFRYNDMGWYIQAPGKERELVDAITRSDSTNYADSVKGRFTISRDNAKNTVYLQMNSLKPEDTAVYYCAARRHYTYGNGPSRGGQMDYWGQGTQVTVSS', 'high polyreactivity');
